- experiment description: Plasma concentration in athymic nu/nu mouse bearing human MDA-MB-231 tumor at 10 to 100 mg/kg, po administered QD for 14 days
- Assay type: ADME, organism-based
- Design: dose 10-100 mg/kg, route oral

{"compound": "CCN1CCC(Nc2ccc3c(c2)C(=C(c2ccc(Cl)cc2)c2ncc[nH]2)C(=O)N3)CC1 (mixture of isomers)", "concentration at 336 h (nM)": 1000}

---

- experiment description: Plasma concentration in VEGF stimulated-mouse at 30 mg/kg, po after 4 hrs
- Assay type: ADME, organism-based
- Parameters: dose 30 mg/kg, route oral
experimental endpoint: concentration at 4 h

{"compound": "CCN1CCC(Nc2ccc3c(c2)C(=C(c2ccc(Cl)cc2)c2ncc[nH]2)C(=O)N3)CC1 (mixture of isomers)", "test result": "10 nM"}

Values from ChEMBL document CHEMBL2086224
